Biological target: Estrogen receptor (Homo sapiens)
Assay: Antagonist activity at GAL4-fused human ERalpha LBD expressed in HEK293 cells assessed as inhibition of 17beta-estradiol-induced transcriptional activation after 16 to 20 hrs by luciferase reporter gene assay
Type: cell-based
measuredProperty: IC50 (nM)
One number for each entry, in nM.

Problem: Retrieve IC50 measured for "CCCCCCCCCCNCCOc1ccc(C(CCC)(CCC)c2ccc(O)c(C)c2)cc1C" and print it.
Solution: 45

----------
Molecular target: UniProt P03372
Sequence (whole entry): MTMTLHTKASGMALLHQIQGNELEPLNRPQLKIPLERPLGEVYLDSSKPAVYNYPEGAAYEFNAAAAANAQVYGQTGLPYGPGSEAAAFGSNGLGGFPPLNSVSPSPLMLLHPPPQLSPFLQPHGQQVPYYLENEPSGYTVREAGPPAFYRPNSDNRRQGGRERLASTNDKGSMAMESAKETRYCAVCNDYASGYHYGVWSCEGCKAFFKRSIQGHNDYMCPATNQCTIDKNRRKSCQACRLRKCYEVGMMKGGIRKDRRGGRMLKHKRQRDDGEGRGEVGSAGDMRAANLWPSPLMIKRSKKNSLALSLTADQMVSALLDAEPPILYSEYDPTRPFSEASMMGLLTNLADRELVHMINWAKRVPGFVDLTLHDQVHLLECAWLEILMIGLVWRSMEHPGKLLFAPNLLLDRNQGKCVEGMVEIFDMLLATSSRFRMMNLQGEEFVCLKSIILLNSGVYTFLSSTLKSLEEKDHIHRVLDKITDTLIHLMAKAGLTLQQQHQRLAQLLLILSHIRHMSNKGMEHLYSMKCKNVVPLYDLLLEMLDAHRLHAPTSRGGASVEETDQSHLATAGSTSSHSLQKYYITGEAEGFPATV
Assay: Downregulation of ERalpha expression in human MCF7 cells at 10 uM after 6 hrs by Western blot method relative to beta-actin
Format: cell-based
Please respond with reported Activity for every item in the list.
One number for each entry, in %.

- smilesCode: "CCCCCCCCCCCCCCCCNCCOc1ccc(C(CCC)(CCC)c2ccc(O)c(C)c2)cc1C"
  Activity / %: 70
- smilesCode: "CCCCCCCCNCCOc1ccc(C(CCC)(CCC)c2ccc(O)c(C)c2)cc1C"
  Activity / %: 69
- smilesCode: "CCCC(CCC)(c1ccc(O)c(C)c1)c1ccc(O)c(C)c1"
  Activity / %: 70
- smilesCode: "CCCCCCCCCCNCCOc1ccc(C(CCC)(CCC)c2ccc(O)c(C)c2)cc1C"
  Activity / %: 44

Problem: Retrieve Activity measured for "CCCC(CCC)(c1ccc(O)c(C)c1)c1ccc(OCCN)c(C)c1" and print it.
Solution: 150
